The origin of these recorded values is patent US20230151091A1.

measured-on: T1, mouse MuSK (mouse, UniProt Q61006 22-494, limits assumed)
T1 construct: Coated on ELISA plates or on the Biacore chip; also called full length mouse MuSK; mouse MuSK (in house produced in HEK293 cells)
T1 sequence (looked up): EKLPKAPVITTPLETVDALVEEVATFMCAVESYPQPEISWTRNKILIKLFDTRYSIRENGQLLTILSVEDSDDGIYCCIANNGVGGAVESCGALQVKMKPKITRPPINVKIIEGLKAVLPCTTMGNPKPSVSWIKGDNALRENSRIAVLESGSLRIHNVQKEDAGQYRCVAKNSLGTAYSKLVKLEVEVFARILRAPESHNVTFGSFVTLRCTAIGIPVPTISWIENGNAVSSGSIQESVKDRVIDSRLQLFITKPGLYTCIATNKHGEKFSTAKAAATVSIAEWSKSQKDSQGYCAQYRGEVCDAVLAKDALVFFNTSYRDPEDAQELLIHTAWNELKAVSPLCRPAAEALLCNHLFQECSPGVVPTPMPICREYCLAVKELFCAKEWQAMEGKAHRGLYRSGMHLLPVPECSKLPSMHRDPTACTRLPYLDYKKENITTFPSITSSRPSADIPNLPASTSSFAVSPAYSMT
protocol-text: Biacore, MuSK on chip, association pH 7.4, dissociation pH 5.5
Experimental: For affinity determination, a CMS chip was coated with cynomolgus monkey, rat and mouse MuSK (200RU) and 66.7 nM of antibody was applied and kinetic parameters calculated (Table 8). […]
readout-type: R0 (RU)
Give just the number in RU; leave the unit off.

Past entries and their recorded results:
{"binder": "3B2g1m4 (antibody, human IgG1, V domains shown, human IgG1-LALA backbone; produced in HEK293 cells) VH: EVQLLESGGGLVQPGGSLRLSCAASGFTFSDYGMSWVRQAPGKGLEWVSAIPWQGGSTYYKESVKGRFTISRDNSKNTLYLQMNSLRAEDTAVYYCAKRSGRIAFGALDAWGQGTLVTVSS VL: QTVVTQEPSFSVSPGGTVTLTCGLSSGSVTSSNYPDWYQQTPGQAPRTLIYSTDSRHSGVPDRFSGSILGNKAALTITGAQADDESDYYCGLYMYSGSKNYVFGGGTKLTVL", "assay-value": 191}
{"binder": "3B2g2m4 (antibody, human IgG1, V domains shown, human IgG1-LALA backbone; produced in HEK293 cells) VH: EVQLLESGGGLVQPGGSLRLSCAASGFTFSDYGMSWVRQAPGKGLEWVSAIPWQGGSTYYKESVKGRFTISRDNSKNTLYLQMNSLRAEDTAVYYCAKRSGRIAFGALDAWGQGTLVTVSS VL: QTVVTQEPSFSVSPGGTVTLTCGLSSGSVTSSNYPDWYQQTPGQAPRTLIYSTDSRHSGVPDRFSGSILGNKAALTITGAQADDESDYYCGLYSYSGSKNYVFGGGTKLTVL", "assay-value": 191}

Please examine the following record next.
## Input Need R0, item 3B2g2m2 (antibody, human IgG1, V domains shown, human IgG1-LALA backbone; produced in HEK293 cells) VH: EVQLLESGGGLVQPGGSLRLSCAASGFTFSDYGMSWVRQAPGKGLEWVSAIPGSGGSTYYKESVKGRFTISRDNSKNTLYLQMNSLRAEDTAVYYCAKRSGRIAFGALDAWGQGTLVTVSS VL: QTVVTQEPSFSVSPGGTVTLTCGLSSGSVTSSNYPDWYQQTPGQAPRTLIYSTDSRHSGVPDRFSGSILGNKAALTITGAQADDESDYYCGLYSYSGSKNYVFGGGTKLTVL
## Output 153
